Quick note: these are Ki numbers for system: D(3) dopamine receptor (Homo sapiens, UniProt P35462)
Sequence (P35462 whole entry): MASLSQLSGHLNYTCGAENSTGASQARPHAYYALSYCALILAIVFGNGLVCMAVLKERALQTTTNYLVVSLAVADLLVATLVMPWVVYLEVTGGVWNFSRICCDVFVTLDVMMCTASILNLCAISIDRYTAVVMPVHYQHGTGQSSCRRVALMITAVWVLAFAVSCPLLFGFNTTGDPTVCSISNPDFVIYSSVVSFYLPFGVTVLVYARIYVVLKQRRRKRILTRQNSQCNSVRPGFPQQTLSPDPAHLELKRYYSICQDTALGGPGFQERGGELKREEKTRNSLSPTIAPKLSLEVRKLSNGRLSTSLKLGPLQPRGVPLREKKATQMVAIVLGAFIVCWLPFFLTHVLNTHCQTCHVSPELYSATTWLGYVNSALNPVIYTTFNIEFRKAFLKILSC

compound	Ki
COc1ccccc1N1CCN(C[C@H]2OCCOC2(c2ccccc2)c2ccccc2)CC1	2880 nM
COc1ccccc1OCCNCC1OCCOC1(c1ccccc1)c1ccccc1 (configuration not stated)	537 nM

====

Measured pKi by item
Protein target, amino acids: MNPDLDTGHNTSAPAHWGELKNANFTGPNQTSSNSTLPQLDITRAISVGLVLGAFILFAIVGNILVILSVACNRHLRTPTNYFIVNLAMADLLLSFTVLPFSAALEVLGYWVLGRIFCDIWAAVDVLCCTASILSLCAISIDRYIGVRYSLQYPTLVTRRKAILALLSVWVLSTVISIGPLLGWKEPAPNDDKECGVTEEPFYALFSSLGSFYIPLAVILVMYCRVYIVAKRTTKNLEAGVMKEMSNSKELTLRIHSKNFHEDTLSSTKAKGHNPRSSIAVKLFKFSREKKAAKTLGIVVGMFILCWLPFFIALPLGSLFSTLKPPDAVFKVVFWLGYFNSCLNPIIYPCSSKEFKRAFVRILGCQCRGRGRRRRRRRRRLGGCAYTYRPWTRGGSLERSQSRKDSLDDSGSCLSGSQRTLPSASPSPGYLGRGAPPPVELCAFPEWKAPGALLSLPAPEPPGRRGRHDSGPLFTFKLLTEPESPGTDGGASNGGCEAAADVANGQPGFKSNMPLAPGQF
pKi: −log10 of the molar value.

compound	pKi
COc1cccc(OC)c1OCCNCC1OCCOC1(c1ccccc1)c1ccccc1 (centres undefined)	< 6.00
COc1ccccc1OCCNC[C@H]1OCCO[C@@H]1c1ccccc1 (relative stereo)	< 6.00
COc1ccccc1N1CCN(C[C@H]2OCCOC2(c2ccccc2)c2ccccc2)CC1	6.42
COc1cccc(OC)c1OCCNC[C@H]1OCCO[C@@H]1c1ccccc1 (relative stereo)	< 6.00

====

tested-target: 5-hydroxytryptamine receptor 1A (Homo sapiens, UniProt P08908)
Sequence (P08908 whole entry): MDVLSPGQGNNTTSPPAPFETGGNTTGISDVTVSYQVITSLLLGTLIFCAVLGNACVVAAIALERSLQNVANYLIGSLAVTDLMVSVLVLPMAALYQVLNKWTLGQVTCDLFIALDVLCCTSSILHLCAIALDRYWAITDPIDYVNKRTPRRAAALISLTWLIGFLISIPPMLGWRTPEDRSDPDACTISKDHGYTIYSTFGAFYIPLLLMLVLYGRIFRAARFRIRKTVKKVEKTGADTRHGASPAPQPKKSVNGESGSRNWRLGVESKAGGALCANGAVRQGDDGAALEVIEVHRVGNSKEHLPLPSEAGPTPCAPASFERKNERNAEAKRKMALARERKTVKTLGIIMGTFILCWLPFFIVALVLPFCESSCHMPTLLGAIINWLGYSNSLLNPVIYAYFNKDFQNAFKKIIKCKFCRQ
Mark label 1 only when Ki stays strictly below 30 nM. Values equal to the cut-off are label 0.

compound	assigned-label
COc1cccc(OC)c1OCCNCC1(c2ccccc2)COCCO1 (centres undefined)	label 0
COc1ccccc1N1CCN(CC2COCC(c3ccccc3)(c3ccccc3)O2)CC1 (centres undefined)	label 1
c1ccc(OCCNCC2(c3ccccc3)COCCO2)cc1 (centres undefined)	label 0
COc1ccccc1OCCNCC1(c2ccccc2)COCCO1 (centres undefined)	label 0
COc1ccccc1N1CCN(C[C@H]2OCCOC2(c2ccccc2)c2ccccc2)CC1	label 1
c1ccc(OCCNCC2OCCOC2(c2ccccc2)c2ccccc2)cc1 (centres undefined)	label 1
COc1ccccc1OCCNCC1OCCOC1(c1ccccc1)c1ccccc1 (centres undefined)	label 1
COc1ccccc1N1CCN(CC2(c3ccccc3)COCCO2)CC1 (centres undefined)	label 0
COc1cccc(OC)c1OCCNC[C@H]1OCCO[C@H]1c1ccccc1 (relative stereo)	label 0

Source: ChEMBL document CHEMBL4390666
